Each entry below carries its recorded MIC Staphylococcus aureus (GC 4544).
Test system: Staphylococcus sp.
Assay: In vitro antibacterial evaluation: minimum inhibitory concentration (MIC), broth dilution method
Assay type: cell-based
Conditions: strain GC 4544; broth dilution, 18 hours at 35° C.

The cases that follow already have their MIC Staphylococcus aureus (GC 4544) on record.
# compound, MIC Staphylococcus aureus (GC 4544)
rows = [
    ("CC(C)=CCCC(C)CC1OCC2OC(OC3C(CO)OC(Oc4ccc(CC5NC(=O)C(C(C)c6ccccc6)NC(=O)CNC(=O)C(CO)NC(=O)C(C(O)C6CNC(=N)N6C6OC(CO)C(O)C(O)C6O)NC(=O)C(C(O)C6CNC(=N)N6)NC5=O)cc4)C(O)C3O)C(O)C(O)C2O1 (stereo not shown)", "8 µg/mL"),
    ("COc1cccc(C2OCC3OC(OC4C(CO)OC(Oc5ccc(CC6NC(=O)C(C(C)c7ccccc7)NC(=O)CNC(=O)C(CO)NC(=O)C(C(O)C7CNC(=N)N7C7OC(CO)C(O)C(O)C7O)NC(=O)C(C(O)C7CNC(=N)N7)NC6=O)cc5)C(O)C4O)C(O)C(O)C3O2)c1 (stereo not shown)", "2 µg/mL"),
    ("CC(c1ccccc1)C1NC(=O)CNC(=O)C(CO)NC(=O)C(C(O)C2CNC(=N)N2C2OC(CO)C(O)C(O)C2O)NC(=O)C(C(O)C2CNC(=N)N2)NC(=O)C(Cc2ccc(OC3OC(CO)C(OC4OC5COC(c6ccc7ccccc7c6)OC5C(O)C4O)C(O)C3O)cc2)NC1=O (stereo not shown)", "1 µg/mL"),
]

stdin: So what's the measured MIC Staphylococcus aureus (GC 4544) for this one? CC(c1ccccc1)C1NC(=O)CNC(=O)C(CO)NC(=O)C(C(O)C2CNC(=N)N2C2OC(CO)C(O)C(O)C2O)NC(=O)C(C(O)C2CNC(=N)N2)NC(=O)C(Cc2ccc(OC3OC(CO)C(OC4OC5COC(c6ccc(C(C)(C)C)cc6)OC5C(O)C4O)C(O)C3O)cc2)NC1=O (stereo not shown)
stdout: 0.5 to 1 µg/mL
